# TESTED TARGET: MEK1 (Homo sapiens, UniProt Q02750)
# Construct: purchased Millipore 14-420 (GST-MEK1); 14-703 (Cot1); host or cells: Cot1: insect cells (SF21)
# Sequence (Q02750 whole entry): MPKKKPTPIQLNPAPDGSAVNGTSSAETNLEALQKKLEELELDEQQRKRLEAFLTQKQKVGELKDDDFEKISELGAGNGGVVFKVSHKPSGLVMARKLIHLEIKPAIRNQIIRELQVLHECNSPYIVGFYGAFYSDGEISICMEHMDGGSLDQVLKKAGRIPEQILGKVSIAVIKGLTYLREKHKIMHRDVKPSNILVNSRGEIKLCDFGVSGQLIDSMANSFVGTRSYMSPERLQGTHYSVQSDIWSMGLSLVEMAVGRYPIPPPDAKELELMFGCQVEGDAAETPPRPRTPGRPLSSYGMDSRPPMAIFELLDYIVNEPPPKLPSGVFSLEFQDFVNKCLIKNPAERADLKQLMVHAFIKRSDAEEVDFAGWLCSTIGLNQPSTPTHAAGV
# ASSAY NAME: MEK1 activation kinase assay (Assay 2, HTRF; Cot1 phosphorylates GST-MEK1)
# Assay type: biochemical
# STATED CONDITIONS: mean values from 2 or more measurements; read-out: Assay 2 IC50 values (nanomolar) (MEK1 activation kinase assay) (values are mean values from 2 or more measurements)
MEASURED QUANTITY: IC50 (nM)

Please review the entries below; each comes with its answer.
Quick check: IC50 on MEK1 (Homo sapiens, UniProt Q02750), item NC(=O)c1c(Nc2ccc(I)cc2F)cc(F)cc1Oc1cccc(NS(=O)(=O)N2CCOCC2)c1 ? 25.9

Quick check: IC50 on MEK1 (Homo sapiens, UniProt Q02750), item CS(=O)(=O)c1cccc(Oc2cc(F)cc(Nc3ccc(I)cc3F)c2C(N)=O)c1 ? 29.4

Quick check: IC50 on MEK1 (Homo sapiens, UniProt Q02750), item CN(C)S(=O)(=O)Nc1cccc(Oc2cc(F)cc(Nc3ccc(I)cc3F)c2C(=O)NCCO)c1 ? 69.9

Quick check: IC50 on MEK1 (Homo sapiens, UniProt Q02750), item CCCNS(=O)(=O)Nc1cccc(Oc2cc(F)cc(Nc3ccc(I)cc3F)c2C(N)=O)c1 ? 24

Quick check: IC50 on MEK1 (Homo sapiens, UniProt Q02750), item Cc1nocc1C(=O)Nc1cccc(Oc2cc(F)cc(Nc3ccc(I)cc3F)c2C(N)=O)c1 ? 143

I. CS(=O)(=O)N1CCN(CCOc2cc(F)cc(Nc3ccc(I)cc3F)c2C(N)=O)CC1
II. CCN(CC)S(=O)(=O)Nc1cccc(Oc2cc(F)cc(Nc3ccc(I)cc3F)c2C(N)=O)c1
Name the one with the greater IC50 value, either I or II as given. Give the chosen item's label as your response. I

a. CC(O)(CO)CCOc1cc(F)cc(Nc2ccc(I)cc2F)c1C(N)=O (stereo not shown) [Example 6.2]
b. CN(C)S(=O)(=O)Nc1cccc(Oc2c(F)c(F)c(F)c(Nc3ccc(I)cc3F)c2C(N)=O)c1
Field: lower IC50 | Options: a / b Give the chosen item's label as your response. b
(b: 16.5 nM, a: 69.3 nM)

I. NC(=O)c1c(Nc2ccc(I)cc2F)cc(F)cc1Oc1cccc(NC(=O)c2ccno2)c1
II. Cn1cc(Oc2cc(F)cc(Nc3ccc(I)cc3F)c2C(N)=O)cn1
Field: lower IC50 | Options: I / II Give the chosen item's label as your response. I
(I: 86.2 nM, II: 258 nM)

====

# TESTED TARGET: MEK1 (Homo sapiens)
# Construct: purchased Millipore 14-420 (GST-MEK1); 14-703 (Cot1); host or cells: Cot1: insect cells (SF21)
# ASSAY NAME: MEK1 activation kinase assay (Assay 2, HTRF; Cot1 phosphorylates GST-MEK1)
# Format: biochemical
# STATED CONDITIONS: mean values from 2 or more measurements; read-out: Assay 2 IC50 values (nanomolar) (MEK1 activation kinase assay) (values are mean values from 2 or more measurements)
pIC50: −log10 of the molar value.
MEASURED QUANTITY: pIC50

I. NC(=O)c1c(Nc2ccc(I)cc2F)cc(F)cc1Oc1cccc(NC(=O)C2CCC2)c1
II. CN(C)S(=O)(=O)NCc1cccc(Oc2cc(F)cc(Nc3ccc(I)cc3F)c2C(N)=O)c1
Field: lower pIC50 | Options: I / II Give the chosen item's label as your response. I

P. NC(=O)c1c(Nc2ccc(I)cc2F)cc(F)cc1Oc1cccc(NS(N)(=O)=O)c1
Q. NC(=O)c1c(Nc2ccc(I)cc2F)cc(F)cc1Oc1cccc(C(=O)O)c1
Field: lower pIC50 | Options: P / Q Give the chosen item's label as your response. Q
(Q: 7.48, P: 7.73)
